system-under-test: ActRIIA and ActRIIB (on TGFB/SMAD SBE Reporter HEK293 cells) (human)
Sequence (chain, as listed by the source, chain 1 of 2): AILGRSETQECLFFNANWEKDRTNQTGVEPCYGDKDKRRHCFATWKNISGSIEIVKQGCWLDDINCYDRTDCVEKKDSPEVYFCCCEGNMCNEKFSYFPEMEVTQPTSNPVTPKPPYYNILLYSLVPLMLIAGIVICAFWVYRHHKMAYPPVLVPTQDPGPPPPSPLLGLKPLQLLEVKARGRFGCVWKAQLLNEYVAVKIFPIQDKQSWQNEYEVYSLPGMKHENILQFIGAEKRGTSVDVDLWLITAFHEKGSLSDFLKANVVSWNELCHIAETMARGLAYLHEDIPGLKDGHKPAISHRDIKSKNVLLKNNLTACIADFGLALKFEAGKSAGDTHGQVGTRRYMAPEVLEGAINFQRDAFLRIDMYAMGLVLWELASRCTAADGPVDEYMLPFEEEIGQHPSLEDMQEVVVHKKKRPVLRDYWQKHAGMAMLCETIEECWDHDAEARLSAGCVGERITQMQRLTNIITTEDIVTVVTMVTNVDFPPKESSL
Sequence (chain, as listed by the source, chain 2 of 2): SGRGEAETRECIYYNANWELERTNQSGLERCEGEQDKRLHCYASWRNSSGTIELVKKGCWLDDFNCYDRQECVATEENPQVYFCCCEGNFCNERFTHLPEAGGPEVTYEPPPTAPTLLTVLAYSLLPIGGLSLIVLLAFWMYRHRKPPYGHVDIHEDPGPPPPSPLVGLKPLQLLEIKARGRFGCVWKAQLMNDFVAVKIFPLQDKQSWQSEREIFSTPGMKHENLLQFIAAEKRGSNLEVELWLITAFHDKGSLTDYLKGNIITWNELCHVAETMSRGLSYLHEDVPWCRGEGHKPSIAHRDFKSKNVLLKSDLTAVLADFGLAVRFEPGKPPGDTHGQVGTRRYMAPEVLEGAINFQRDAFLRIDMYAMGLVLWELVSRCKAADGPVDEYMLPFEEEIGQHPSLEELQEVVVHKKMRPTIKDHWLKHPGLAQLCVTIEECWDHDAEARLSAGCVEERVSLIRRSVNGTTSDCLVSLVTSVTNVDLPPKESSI
experiment: cell-based or functional assay
Criterion: IC50, Myostatin SMAD RGA strictly under 2 nM. Met: true (1). Not met: false (0).

Some solved cases for reference:
Fasnetsküchla Fab (Fab, V domains shown, Fab) VH: QVQLVQSGAEVKKPGASVKVSCKASGYTFTSSYINWVRQAPGQGLEWMGTINAVSGSTSYAQKFQGRVTMTRDTSISTAYMELSRLRSDDTAVYYCARGGWFDYWGQGTLVTVSS VL: QSALTQPASVSGSPGQSITISCTGTSSDVGSANYVNWYQQHPGKAPKPMIYGVSRRPSGVSNRFSGSKSGNTASLTISGLQAEDEADYYCGTFAGGKYYGVFGGGTKLTVL | false (0)
Antibody Rippla (antibody, V domains shown, full-length IgG; also called Ripp1a) VH: QVQLVQSGAEVRKPGASVKVSCKASGYTFTSSYINWVRQAPGQGLEWMGTINPVSGSTSYAQKFQGRVTMTRDTSISTAYMELSRLRSDDTAVYYCARGGWFDYWGQGTLVTVSS VL: QSALTQPASVSGSPGQSITISCTGTSSDVGSYNRVNWYQQHPGKAPKLMIYGVSKRESGVSNRFSGSKSGNTASLTISGLQAEDEADYYCGTFAGGRYYGVFGGGTKLTVL | true (1)
Antibody Duuranad (antibody, V domains shown, full-length IgG) VH: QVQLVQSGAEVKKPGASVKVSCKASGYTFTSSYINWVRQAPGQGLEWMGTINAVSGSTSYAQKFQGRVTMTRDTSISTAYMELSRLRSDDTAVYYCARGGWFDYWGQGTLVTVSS VL: QSALTQPASVSGSPGQSITISCTGTSSDVGSFNYVNWYQQHPGKAPKLMIRGVSKRESGVSNRFSGSKSGNTASLTISGLQAEDEADYYCGTFAGGAYYGVFGGGTKLTVL | true (1)
Ochsamaulsalat Fab (Fab, V domains shown, Fab) VH: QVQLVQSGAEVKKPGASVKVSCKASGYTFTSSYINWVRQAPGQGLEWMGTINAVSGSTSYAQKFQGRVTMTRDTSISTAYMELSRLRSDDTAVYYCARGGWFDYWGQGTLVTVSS VL: QSALTQPASVSGSPGQSITISCTGTSSDVGSRNYVNWYQQHPGKAPKLMIYGVSKRESGVSNRFSGSKSGNTASLTISGLQAEDEADYYCGTFAGGDYYGVFGGGTKLTVL | false (0)
Antibody Wurschdsalat (antibody, V domains shown, full-length IgG) VH: QVQLVQSGAEVKKPGASVKVSCKASGYTFTSSYINWVRQAPGQGLEWMGTINAVSGSTSYAQKFQGRVTMTRDESISTAYMELSRLRSDDTAVYYCARGGWFDYWGQGTLVTVSS VL: QSALTQPASVSGSPGQSITISCTGTSSDVGSYNYVNWYQQHPGKAPKLMIYGVSKRESGVSNRFSGSKSGNTASLTISGLQAEDEADYYCGTFAGGKYYGVFGGGTKLTVL | true (1)

Dear reviewer, please state whether Wurschdsalat Fab (Fab, V domains shown, Fab) VH: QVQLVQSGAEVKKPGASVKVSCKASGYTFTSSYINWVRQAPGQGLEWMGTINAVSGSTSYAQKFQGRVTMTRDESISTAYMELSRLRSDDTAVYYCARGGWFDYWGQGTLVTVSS VL: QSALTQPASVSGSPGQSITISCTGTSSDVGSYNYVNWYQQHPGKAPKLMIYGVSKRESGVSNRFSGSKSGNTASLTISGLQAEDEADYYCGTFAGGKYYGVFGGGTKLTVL has IC50, Myostatin SMAD RGA strictly beneath 2 nM.
false (0)

Dear reviewer, please state whether Antibody Riaba (antibody, V domains shown, full-length IgG) VH: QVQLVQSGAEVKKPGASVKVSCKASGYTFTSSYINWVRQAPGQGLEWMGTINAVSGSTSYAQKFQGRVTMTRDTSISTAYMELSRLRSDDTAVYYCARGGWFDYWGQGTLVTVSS VL: QSALTQPASVSGSPGQSITISCTGTSSDVGSYNYVNWYQQHPGKAPKLMIYGVSKRDSGVSNRFSGSKSGNTASLTISGLQAEDEADYYCGTFAGGKYYGVFGGGTKLTVL has IC50, Myostatin SMAD RGA strictly beneath 2 nM.
true (1)

Dear reviewer, please state whether Bimagrumab Fab (Fab, V domains shown, Fab) VH: QVQLVQSGAEVKKPGASVKVSCKASGYTFTSSYINWVRQAPGQGLEWMGTINPVSGSTSYAQKFQGRVTMTRDTSISTAYMELSRLRSDDTAVYYCARGGWFDYWGQGTLVTVSS VL: QSALTQPASVSGSPGQSITISCTGTSSDVGSYNYVNWYQQHPGKAPKLMIYGVSKRPSGVSNRFSGSKSGNTASLTISGLQAEDEADYYCGTFAGGSYYGVFGGGTKLTVL has IC50, Myostatin SMAD RGA strictly beneath 2 nM.
false (0)

Dear reviewer, please state whether Riaba Fab (Fab, V domains shown, Fab) VH: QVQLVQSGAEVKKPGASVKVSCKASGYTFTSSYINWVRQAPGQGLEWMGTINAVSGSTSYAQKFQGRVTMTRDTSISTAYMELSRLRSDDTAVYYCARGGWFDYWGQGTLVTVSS VL: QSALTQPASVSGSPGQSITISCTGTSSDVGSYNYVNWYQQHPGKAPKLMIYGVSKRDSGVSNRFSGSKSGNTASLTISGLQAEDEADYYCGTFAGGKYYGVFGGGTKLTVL has IC50, Myostatin SMAD RGA strictly beneath 2 nM.
false (0)

Dear reviewer, please state whether Antibody Hefaknöpfla (antibody, V domains shown, full-length IgG) VH: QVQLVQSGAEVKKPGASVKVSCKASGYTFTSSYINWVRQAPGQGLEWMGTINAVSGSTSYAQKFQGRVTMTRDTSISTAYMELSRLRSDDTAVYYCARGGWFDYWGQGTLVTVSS VL: QSALTQPASVSGSPGQSITISCTGTSSDVGSKNYVNWYQQHPGKAPKLMIYGVSKRESGVSNRFSGSKSGNTASLTISGLQAEDEADYYCGTFAGGKYYGVFGGGTKLTVL has IC50, Myostatin SMAD RGA strictly beneath 2 nM.
true (1)
